Tested system: T1, human NGF (his tag) (human, UniProt P01138 122-241, limits assumed)
T1 construct: Captured on Ni-NTA sensors in the ForteBio Octet assay; also called hNGF; antigen; not shown: his tag
T1 sequence (P01138 122-241 limits assumed): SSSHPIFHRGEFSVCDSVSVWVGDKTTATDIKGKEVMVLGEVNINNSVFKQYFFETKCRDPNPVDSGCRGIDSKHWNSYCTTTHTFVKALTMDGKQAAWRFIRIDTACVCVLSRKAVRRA
Procedure text: BLI (ForteBio Octet), method of example 4
Measurement type: pKd
On this scale, pKd is minus log10 of a concentration expressed in M (mol/L).

## Task Recorded pKd for humanized antibody AB5D2 (antibody, V domains shown, Humanized from #2 by CDR transplantation) VH: QVQLVQSGAEVKKPGASVKVSCKASGYTFTDYWMQWVKQRPGQGLEWIGTIYPGDGYTRYIQKFKGRVTMTRDTSTSTVYMELSSLRSEDSAVYYCARRAAYYTMDYWGQGTLVTVSS VL: DIQMTQSPSSLSASVGDRVTITCKASQDVNTAVAWYQQKPGKAPKLLIYWASTRHTGVPDRFTGSGSGTDYTLTISSLQPEDLALYYCQQHYSSPWTFGGGTKVEIT , please?
## Result 11.20

## Task Entry under review: humanized antibody AB5D6 (antibody, V domains shown, Humanized from #2 by surface remodeling) VH: QVQLQQSGPEVAKPGASVKLSCKASGYTFTDYWMQWVKQRPGQGLEWIGTIYPGDGYTRYIQKFKGRATLTADKSTSTAYMELNSLASEDSAVYYCARRAAYYTMDYWGQGTSVTVSS VL: DIVMTQSHKFMSTSVGDRVTITCKASQDVNTAVAWYQQKPGQSPKLLIYWASTRHTGVPDRFSGSGSGTDYILTISSVQAEDLALYYCQQHYSSPWTFGGGTKLEIT . Reported pKd?
## Result 10.80

## Task Item humanized antibody AB5C3 (antibody, V domains shown, Humanized from #56 by CDR transplantation) VH: QVQLQESGPGLVKPSETLSLTCTVSGFSLTGYGWGWIRQPPGKGLEWIGSIWADGDTYYNPSLKSRVTISVDTSKNQFSLKLSSVTAADTAVYYCARDSYYYGYNFFDVWGQGTMVTVSS VL: DIQMTQSPSSLSASVGDRVTITCQASQDISNYLNWYQQKPGKAPKLLIYYTSNLETGVPSRFSGSGSGTDFTFTISSLQPEDIATYYCQQGNTLPRTFGGGTKVEIK has what recorded pKd?
## Result 11.12

## Task # input binder: humanized antibody AB5C4 (antibody, V domains shown, Humanized from #56 by CDR transplantation) VH: QVQLQESGPGLVKPSETLSLTCTVSGFSLTGYGWGWVRQPPGKGLEWIGSIWADGDTYYNPSLKSRVTISVDTSKNQFSLKLSSVTAADTAVYYCARDSYYYGYNFFDVWGQGTMVTVSS VL: DIQMTQSPSSLSASVGDRVTITCQASQDISNYLNWYQQKPGKAPKLLIYYTSNLESGVPSRFSGSGSGTDFTFTISSLQPEDIATYYCQQGNTLPRTFGGGTKVEIK ; wanted: its pKd
## Result 10.82

## Task Fill blank: measured pKd of the binder humanized antibody AB5C5 (antibody, V domains shown, Humanized from #56 by CDR transplantation) VH: QVQLQESGPGLVKPSETLSLTCTVSGFSLTGYGWGWVRQPPGKGLEWLGSIWADGDTYYNPSLKSRVTISVDTSKNQFSLKLSSVTAADTAVYYCARDSYYYGYNFFDVWGQGTMVTVSS VL: DIQMTQSPSSLSASVGDRVTITCQASQDISNYLNWYQQKPGKAPKLLIYYTSNLESGVPSRFSGSGSGTDFTFTISSLQPEDIATYFCQQGNTLPRTFGGGTKVEIK is ____.
## Result 11.05
